assay_overview: Drug concentration and pharmacokinetics in muscle near the injection site after sciatic nerve block in rats
Format: in vivo, rat
condition_set: male, rat, muscle near the injection site; muscle; given as LL-1, sciatic nerve block; n = 5 per time point
measurement_kind: Tmax

Provide Tmax value for the following compound: CCCCN1CCCC[C@H]1C(=O)Nc1c(C)cccc1C [Levobupivacaine, levobupivacaine]
30 min

###

assay_overview: Plasma pharmacokinetics after sciatic nerve block in rats
Assay type: in vivo, rat
condition_set: both sexes, rat, 200 μl; plasma; Levobupivacaine alone (single drug), sciatic nerve block; mean ± SEM
measurement_kind: AUC(0-t)
A complete answer gives the number and then names the unit.

Provide AUC(0-t) value for the following compound: CCCCN1CCCC[C@H]1C(=O)Nc1c(C)cccc1C [Levobupivacaine, levobupivacaine]
471 ng·h/mL
